So I've got a bunch of binders here, and I need their IC50 values.
- TEST_SYSTEM: T1, Human soluble IL-6R (human, UniProt P08887 20-358)
- T1 construct: Soluble recombinant form; biotinylated in some assays; also called hIL-6R; human IL-6R
- T1 sequence (looked up): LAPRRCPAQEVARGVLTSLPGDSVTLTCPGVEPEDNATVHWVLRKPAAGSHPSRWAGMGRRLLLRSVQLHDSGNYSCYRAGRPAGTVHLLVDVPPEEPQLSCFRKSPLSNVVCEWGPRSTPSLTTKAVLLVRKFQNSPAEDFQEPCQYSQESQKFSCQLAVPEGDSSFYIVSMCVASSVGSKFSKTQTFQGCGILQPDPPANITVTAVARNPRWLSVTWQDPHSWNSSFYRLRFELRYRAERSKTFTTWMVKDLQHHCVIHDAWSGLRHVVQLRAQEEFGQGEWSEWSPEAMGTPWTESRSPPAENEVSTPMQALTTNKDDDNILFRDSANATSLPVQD
- ASSAY: inhibition of the IL-6/IL-6R interaction, summary table C-13
Write the figure, then the unit, nothing else.

Notebook: IL6R06 (VHH, also called PMP32E2; not shown: C-terminal c-myc and (His)6 tags) VHH: EVQLVESGGGLVQAGGSLRLSCAASGNIFDDNTMGWTWNRQPPGKQRELVAIIATDGSTNYADSVKGRFTISRDNAKNTVYLQMNSLKPEDTAVYYCNLFSLRLGRDYWGQGTQVTVSS , IC50 read as 1.21 nM

Notebook: IL6R13 (VHH, also called PMP35H4; not shown: C-terminal c-myc and (His)6 tags) VHH: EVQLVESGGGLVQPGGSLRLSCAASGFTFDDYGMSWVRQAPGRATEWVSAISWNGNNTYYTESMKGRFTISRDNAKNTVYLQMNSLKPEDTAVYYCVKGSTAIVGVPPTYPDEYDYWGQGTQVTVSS , IC50 read as 0.05 nM

Notebook: IL6R04 (VHH, also called PMP32C9; not shown: C-terminal c-myc and (His)6 tags) VHH: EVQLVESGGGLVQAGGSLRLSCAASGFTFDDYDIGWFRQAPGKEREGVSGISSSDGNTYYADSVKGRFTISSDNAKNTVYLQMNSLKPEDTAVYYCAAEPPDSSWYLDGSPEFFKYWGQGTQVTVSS , IC50 read as 0.09 nM

Notebook: IL6R02 (VHH, also called PMP30C11; not shown: C-terminal c-myc and (His)6 tags) VHH: EVQLVESGGGLVQAGGSLRLSCAASGRTFSSYDMGWYRQAPGKEREFVAVISRSGSSTYYADSVKGRFTISRDNAKNTVYLQMNSLKPEDTAIYYCKAEVVAGDYDYWGQGTQVTVSS , IC50 read as 1.69 nM
